Source of measurements: ChEMBL document CHEMBL1201862

- Test system: HCC 2998
- MEASUREMENT_DESCRIPTION: NCI tumour cell line growth inhibition, 48 h
Calls of active or inactive are those of the source. Cut-off read from the data, not from the text of the source: active = GI50 up to about 1.1 µM and inactive = higher.
Result category, one only: active, inactive

Illustrative cases are given below, each with its answer.
N#C[BH2-][n+]1cn(C2CC(O)C(COP(=O)(O)OC3CC(n4cnc5c(N)ncnc54)OC3CO)O2)c2nc(N)[nH]c(=O)c21 (stereo not drawn) : inactive
Cc1ccc(O)c(C2=CC(c3cccc(Cl)c3)SC(=N)N2)c1 (stereo not drawn) : inactive
C[C@H]1[C@H](C)CC[C@]2(C(=O)OC3OC(CO)C(O)C(O)C3O)CC[C@]3(C)C(=CC[C@@H]4[C@@]5(C)C[C@@H](O)[C@@H]6OC(=O)c7cc(O)c(O)c(O)c7-c7c(cc(O)c(O)c7O)C(=O)OC[C@@]6(CO)[C@@H]5CC[C@]43C)[C@H]12 (stereo partly drawn) : inactive

Recorded call for CCCCCC(C)(C)CCC(=O)OC1OC(COC2OC(COC3OC(CO)C(O)C(O)C3O)C(O)C(O)C2O)C(O)C(O)C1O (stereo not drawn) ?
inactive

For CN(C)c1cccc2c(S(=O)(=O)NCCN)cccc12 , what call appears in the results of this test?
inactive

Status in this test for C=CCn1c(=O)ccn(COCCO)c1=O ?
inactive

Field: outcome | Entry: COC(=O)c1c[nH]cc1CCc1c[nH]cc1C(=O)OC
inactive

Fill in: this test's call for CC(=O)C(I(OS(=O)(=O)c1ccc(C)cc1)c1ccccc1)=P(c1ccccc1)(c1ccccc1)c1ccccc1 is ___
inactive

Please state the recorded outcome for this molecule: CN1CCN(C(=S)N2CCN(C)CC2)CC1
inactive

Which result was noted for this molecule in the test: COC1CC(C)([N+](=O)[O-])C(O)C(C)O1 (stereo not drawn)
inactive

What did the test return for O=C1OC(c2ccccc2)N/C1=C\c1ccc2c(c1)OCO2 (stereo not drawn) ?
inactive

Please state the recorded outcome for this molecule: CC1=C(C)C(=O)O[C@@H]([C@](C)(O)[C@]2(O)CC[C@@]3(O)[C@@H]4C[C@H]5O[C@]56[C@@H](O)C=CC(=O)[C@]6(C)[C@H]4CC[C@]23C)C1
inactive

What is the recorded call for this molecule in the test? O=[N+]([O-])C(/C=C(\Cl)[N+](=O)[O-])=C1Nc2ccccc2N1
inactive

State the result this test recorded for CN(C)CCNC(=O)Cc1ccccc1Nc1c(Cl)cccc1Cl .
inactive

I would be grateful if you could indicate the recorded call for Cc1sc(Nc2ccccc2[N+](=O)[O-])c(C#N)c1C .
inactive

Called result for N=C(N)N/N=C\c1ccc(C2CCNCC2)cc1
inactive

Returns: the outcome recorded for Cc1ccc(NC(=O)CCC(=O)C(C#N)c2ccc(Cl)cc2)cc1C (stereo not drawn) in this assay.
inactive

Recorded test outcome, item COc1cc2c(c(OC)c1OC)-c1ccc(SC)c(=O)cc1C(NC=O)CC2 (stereo not drawn)
active

###

- System: M14
- MEASUREMENT_DESCRIPTION: NCI tumour cell line growth inhibition, 48 h
Calls of active or inactive are those of the source. Cut-off read from the data, not from the text of the source: active = GI50 up to about 1.1 µM and inactive = higher.
Pick one and only one: active, inactive

Examples with answers:
COc1ccc(NC(=O)CC(=O)NNC(Sc2ccccc2)c2cc(/N=N/c3ccc(Br)cc3)ccc2O)cc1 (centres undefined) : inactive
Cc1ccc2nc(-c3ccc(N4C(=O)C(Cl)C4c4ccc(Cl)cc4)cc3)sc2c1 (centres undefined) : inactive
CC(=O)O[C@H]1C(=O)[C@@]2(C)C(C(OC(=O)c3ccccc3)[C@]3(O)CC(OC(=O)C(O)C(NC(=O)c4ccc(C)cc4)c4ccccc4)C(C)=C1C3(C)C)[C@]1(OC(C)=O)CO[C@@H]1C[C@@H]2O (some centres undefined) : active

Would you kindly look at the next entry?
For CCOC(=O)c1c(C)nc2c(c1-c1cn(-c3ccccc3)nc1-c1ccccc1)C(=O)c1ccccc1-2 , which call appears in the assay record?
inactive
